The values you see were collected from PubChem BioAssay AID1919000.

Tested on: 653999-131-R-J2-PDC complex spheroids, growth % test/control
Assay: Anticancer human tumor 653999-131-R-J2-PDC patient-derived lung adenocarcinoma cell line growth inhibition [AhR]
Conditions: second compound 3.16 µM; first compound 1 µM; stronger effect = lower value
From the text: Multicellular complex tumor spheroid response to aryl hydrocarbon receptor antagonists in combination with a variety of drugs and investigational agents in selected tumor cell lines […] Compounds. […] If the clinical Cmax for an agent had not been determined, the highest concentration tested was 10 microM (Table 1). […]
Below, each of the compounds is paired with its reported viability, T/C value.
Your answer should be a plain number; it is taken to be in %.

Consider the reported viability, T/C for these compounds:
COMPOUND	TARGET	viability, T/C / %
CC(C)c1c(-c2ccccc2)nc2c(C#N)c[nH]n2c1=O + Cc1cncc(-c2nc(NCCc3c[nH]c4ccccc34)c3ncn(C(C)C)c3n2)c1	653999-131-R-J2-PDC complex spheroids, growth % test/control	115
CC(C)c1c(-c2ccccc2)nc2c(C#N)c[nH]n2c1=O + CC(CO)NC(=O)c1cc(-c2ccc(Cl)cc2)nn(-c2cnn(C)c2)c1=O	653999-131-R-J2-PDC complex spheroids, growth % test/control	93.6
COc1cc(C2c3cc4c(cc3C(OC3OC5COC(C)OC5C(O)C3O)C3COC(=O)C23)OCO4)cc(OC)c1O (stereo not given) + Cc1ccccc1N=Nc1ccc(NC(=O)c2ccnn2C)c(C)c1	653999-131-R-J2-PDC complex spheroids, growth % test/control	46.1
Nc1ccn(C2OC(CO)C(O)C2(F)F)c(=O)n1 (stereo not given) + Cc1ccccc1N=Nc1ccc(NC(=O)c2ccnn2C)c(C)c1	653999-131-R-J2-PDC complex spheroids, growth % test/control	44.9

Exercise: For the compound COc1cc(C2c3cc4c(cc3C(OC3OC5COC(C)OC5C(O)C3O)C3COC(=O)C23)OCO4)cc(OC)c1O (stereo not given) + Cc1cncc(-c2nc(NCCc3c[nH]c4ccccc34)c3ncn(C(C)C)c3n2)c1 , what viability, T/C is on record?
Solution: 54.5

Exercise: For the compound Nc1ccccc1NC(=O)c1ccc(CNC(=O)OCc2cccnc2)cc1 + Cc1ccccc1N=Nc1ccc(NC(=O)c2ccnn2C)c(C)c1 , what viability, T/C is on record?
Solution: 54.4

Exercise: For the compound COc1ccc([C@@H](O)c2cc(-c3ncnc4cc(N5CCOCC5)ccc34)c(F)cc2Cl)nn1 + CC(CO)NC(=O)c1cc(-c2ccc(Cl)cc2)nn(-c2cnn(C)c2)c1=O , what viability, T/C is on record?
Solution: 77.4

Exercise: For the compound NS(=O)(=O)OCC1CC(n2ccc3c(NC4CCc5ccccc54)ncnc32)CC1O (stereo not given) + Cc1ccccc1N=Nc1ccc(NC(=O)c2ccnn2C)c(C)c1 , what viability, T/C is on record?
Solution: 93.4

Exercise: For the compound Nc1ccn(C2OC(CO)C(O)C2(F)F)c(=O)n1 (stereo not given) + Cc1cncc(-c2nc(NCCc3c[nH]c4ccccc34)c3ncn(C(C)C)c3n2)c1 , what viability, T/C is on record?
Solution: 43.5

Exercise: For the compound CC1(C)CCC(CN2CCN(c3ccc(C(=O)NS(=O)(=O)c4ccc(NCC5CCOCC5)c([N+](=O)[O-])c4)c(Oc4cnc5[nH]ccc5c4)c3)CC2)=C(c2ccc(Cl)cc2)C1 + CC(CO)NC(=O)c1cc(-c2ccc(Cl)cc2)nn(-c2cnn(C)c2)c1=O , what viability, T/C is on record?
Solution: 108

Exercise: For the compound COc1cccc2c1C(=O)c1c(O)c3c(c(O)c1C2=O)CC(O)(C(=O)CO)CC3OC1CC(N)C(O)C(C)O1 (stereo not given) + CC(CO)NC(=O)c1cc(-c2ccc(Cl)cc2)nn(-c2cnn(C)c2)c1=O , what viability, T/C is on record?
Solution: 6.87

Exercise: For the compound Nc1ncn(C2CC(O)C(CO)O2)c(=O)n1 (stereo not given) + CC(CO)NC(=O)c1cc(-c2ccc(Cl)cc2)nn(-c2cnn(C)c2)c1=O , what viability, T/C is on record?
Solution: 87.8

Exercise: For the compound COc1ccc([C@@H](O)c2cc(-c3ncnc4cc(N5CCOCC5)ccc34)c(F)cc2Cl)nn1 + Cc1ccccc1N=Nc1ccc(NC(=O)c2ccnn2C)c(C)c1 , what viability, T/C is on record?
Solution: 88.1

Exercise: For the compound Nc1ccccc1NC(=O)c1ccc(CNC(=O)OCc2cccnc2)cc1 + Cc1cncc(-c2nc(NCCc3c[nH]c4ccccc34)c3ncn(C(C)C)c3n2)c1 , what viability, T/C is on record?
Solution: 57.7

Exercise: For the compound Nc1ccn(C2OC(CO)C(O)C2(F)F)c(=O)n1 (stereo not given) + CC(CO)NC(=O)c1cc(-c2ccc(Cl)cc2)nn(-c2cnn(C)c2)c1=O , what viability, T/C is on record?
Solution: 55.7

Exercise: For the compound O=C(C=Cc1cccc(S(=O)(=O)Nc2ccccc2)c1)NO + Cc1ccccc1N=Nc1ccc(NC(=O)c2ccnn2C)c(C)c1 , what viability, T/C is on record?
Solution: 81.5

Exercise: For the compound O=C(C=Cc1cccc(S(=O)(=O)Nc2ccccc2)c1)NO + CC(CO)NC(=O)c1cc(-c2ccc(Cl)cc2)nn(-c2cnn(C)c2)c1=O , what viability, T/C is on record?
Solution: 90.2

----------
tested on: 653999-131-R-J2-PDC complex spheroids, growth % test/control; test: Anticancer human tumor 653999-131-R-J2-PDC cell line growth inhibition [AhR]; details: second compound 3.16 µM; first compound 1 µM; active means viability on the fitted dose curve at most 10% of control; inactive means the rest;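 also: spheroids exposed to agents for seven days; 100% = DMSO vehicle control viability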
Tick one outcome: yes = active, no = inactive

Worked examples, 3 compounds total:
COMPOUND	CLASSIFICATION
COc1cc(Nc2ncc3c(n2)-c2ccc(Cl)cc2C(c2c(F)cccc2OC)=NC3)ccc1C(=O)O + Cc1ccccc1N=Nc1ccc(NC(=O)c2ccnn2C)c(C)c1	no
CC1COCCN1c1cc(-c2ccnn2C)c2ccnc(-c3ccn[nH]3)c2n1 (centres undefined) + Cc1cncc(-c2nc(NCCc3c[nH]c4ccccc34)c3ncn(C(C)C)c3n2)c1	no
CC1COCCN1c1cc(-c2ccnn2C)c2ccnc(-c3ccn[nH]3)c2n1 (centres undefined) + CC(CO)NC(=O)c1cc(-c2ccc(Cl)cc2)nn(-c2cnn(C)c2)c1=O	no

Exercise: Per the records of this test, what outcome belongs to O=C(c1cc(Cc2n[nH]c(=O)c3ccccc23)ccc1F)N1CCN(C(=O)C2CC2)CC1 + CC(CO)NC(=O)c1cc(-c2ccc(Cl)cc2)nn(-c2cnn(C)c2)c1=O ?
Solution: no

Exercise: Per the records of this test, what outcome belongs to NS(=O)(=O)OCC1CC(n2ccc3c(NC4CCc5ccccc54)ncnc32)CC1O (centres undefined) + Cc1cncc(-c2nc(NCCc3c[nH]c4ccccc34)c3ncn(C(C)C)c3n2)c1 ?
Solution: no

----------
test system: 653999-131-R-J2-PDC complex spheroids, growth % test/control; assay: Anticancer human tumor 653999-131-R-J2-PDC cell line growth inhibition [AhR]; conditions: second compound 1 µM; first compound 0.1 µM; stronger effect = lower value;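 also: spheroids exposed to agents for seven days; 100% = DMSO vehicle control viability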
Checkbox rule: viability, T/C lower than 80% = condition met; viability, T/C not lower than 80% = condition not met.

Worked examples, 3 molecules total:
MOLECULE	TARGET	CLASSIFICATION
Nc1ccn(C2OC(CO)C(O)C2(F)F)c(=O)n1 (stereo not given) + Cc1ccccc1N=Nc1ccc(NC(=O)c2ccnn2C)c(C)c1	653999-131-R-J2-PDC complex spheroids, growth % test/control	condition met
CC1(C)CCC(CN2CCN(c3ccc(C(=O)NS(=O)(=O)c4ccc(NCC5CCOCC5)c([N+](=O)[O-])c4)c(Oc4cnc5[nH]ccc5c4)c3)CC2)=C(c2ccc(Cl)cc2)C1 + Cc1cncc(-c2nc(NCCc3c[nH]c4ccccc34)c3ncn(C(C)C)c3n2)c1	653999-131-R-J2-PDC complex spheroids, growth % test/control	condition not met
O=C(c1cc(Cc2n[nH]c(=O)c3ccccc23)ccc1F)N1CCN(C(=O)C2CC2)CC1 + Cc1cncc(-c2nc(NCCc3c[nH]c4ccccc34)c3ncn(C(C)C)c3n2)c1	653999-131-R-J2-PDC complex spheroids, growth % test/control	condition not met

Exercise: Check if viability, T/C falls below 80% for O=C(C=Cc1cccc(S(=O)(=O)Nc2ccccc2)c1)NO + CC(CO)NC(=O)c1cc(-c2ccc(Cl)cc2)nn(-c2cnn(C)c2)c1=O .
Solution: condition not met

Exercise: Check if viability, T/C falls below 80% for COc1cccc2c1C(=O)c1c(O)c3c(c(O)c1C2=O)CC(O)(C(=O)CO)CC3OC1CC(N)C(O)C(C)O1 (stereo not given) + CC(CO)NC(=O)c1cc(-c2ccc(Cl)cc2)nn(-c2cnn(C)c2)c1=O .
Solution: condition met

Exercise: Check if viability, T/C falls below 80% for CC1COCCN1c1cc(-c2ccnn2C)c2ccnc(-c3ccn[nH]3)c2n1 (stereo not given) + Cc1cncc(-c2nc(NCCc3c[nH]c4ccccc34)c3ncn(C(C)C)c3n2)c1 .
Solution: condition met

Exercise: Check if viability, T/C falls below 80% for CC(C)c1c(-c2ccccc2)nc2c(C#N)c[nH]n2c1=O + Cc1cncc(-c2nc(NCCc3c[nH]c4ccccc34)c3ncn(C(C)C)c3n2)c1 .
Solution: condition not met

Exercise: Check if viability, T/C falls below 80% for CC[C@@]1(O)C(=O)OCc2c1cc1n(c2=O)Cc2cc3c(CN(C)C)c(O)ccc3nc2-1 + Cc1cncc(-c2nc(NCCc3c[nH]c4ccccc34)c3ncn(C(C)C)c3n2)c1 .
Solution: condition met

Exercise: Check if viability, T/C falls below 80% for CC1COCCN1c1cc(-c2ccnn2C)c2ccnc(-c3ccn[nH]3)c2n1 (stereo not given) + Cc1ccccc1N=Nc1ccc(NC(=O)c2ccnn2C)c(C)c1 .
Solution: condition met

Exercise: Check if viability, T/C falls below 80% for Nc1ccccc1NC(=O)c1ccc(CNC(=O)OCc2cccnc2)cc1 + Cc1ccccc1N=Nc1ccc(NC(=O)c2ccnn2C)c(C)c1 .
Solution: condition not met

Exercise: Check if viability, T/C falls below 80% for CC(C)c1c(-c2ccccc2)nc2c(C#N)c[nH]n2c1=O + Cc1ccccc1N=Nc1ccc(NC(=O)c2ccnn2C)c(C)c1 .
Solution: condition not met

Exercise: Check if viability, T/C falls below 80% for O=C(c1cc(Cc2n[nH]c(=O)c3ccccc23)ccc1F)N1CCN(C(=O)C2CC2)CC1 + CC(CO)NC(=O)c1cc(-c2ccc(Cl)cc2)nn(-c2cnn(C)c2)c1=O .
Solution: condition not met

Exercise: Check if viability, T/C falls below 80% for Cn1ncnc1C1c2n[nH]c(=O)c3cc(F)cc(c23)NC1c1ccc(F)cc1 (stereo not given) + CC(CO)NC(=O)c1cc(-c2ccc(Cl)cc2)nn(-c2cnn(C)c2)c1=O .
Solution: condition not met

Exercise: Check if viability, T/C falls below 80% for CC1COCCN1c1cc(C2(S(C)(=N)=O)CC2)nc(-c2ccnc3[nH]ccc23)n1 (stereo not given) + CC(CO)NC(=O)c1cc(-c2ccc(Cl)cc2)nn(-c2cnn(C)c2)c1=O .
Solution: condition not met
